Listed molecules paired with reported pIC50
Biological target: Tyrosine-protein kinase Lck (Bos taurus)
Experiment: Ability to inhibit protein-tyrosine kinase activity of p56lck (isolated from bovine thymus) in vitro.
pIC50: −log10 of the molar value.

If you can, please state the reported pIC50 value of O=c1cc(-c2ccc([N+](=O)[O-])cc2)oc2cc(O)ccc12 .
< 2.70

Requested read-out: pIC50. Entry: COc1ccc(-c2oc3ccccc3c(=O)c2C(=O)O)cc1OC
< 2.70

For COc1ccc2oc(-c3ccc([N+](=O)[O-])cc3)c(C(=O)O)c(=O)c2c1 , what is its reported pIC50?
< 2.70

I have this molecule here, COc1ccc(-c2oc3ccccc3c(=O)c2C(=O)O)cc1 , and I need its recorded pIC50.
< 2.70

Fill in the blank: the reported pIC50 of Nc1ccc(-c2cc(=O)c3ccc(O)cc3o2)cc1 [7-Hydroxy-flavone, 6] is ____.
3.86

Given COc1cc(-c2oc3ccccc3c(=O)c2C(=O)O)cc(OC)c1OC , state its recorded pIC50.
< 2.70

# lookup: pIC50 of COC(=O)CC(=O)c1ccccc1O
< 2.70

I would be grateful if you could share the reported pIC50 for COC(=O)c1c(-c2cc(OC)cc(OC)c2)oc2ccccc2c1=O .
< 2.70

What value of pIC50 has been recorded for this entry: COC(=O)c1c(-c2ccc(N)cc2)oc2ccccc2c1=O
3.09

Recorded pIC50 of COC(=O)c1c(-c2ccc(OCc3ccccc3)cc2)oc2ccc(OC)cc2c1=O , please.
< 2.70

Would you mind telling me what pIC50 value was observed for COC(=O)c1c(-c2ccc(O)cc2)oc2ccc(OC)cc2c1=O ?
< 2.70
